# target system: T1, IL-12 (Human IL12 (His Tag)), Sino Biological Cat. No. CT-050-H08H-20 (human, UniProt P29460 23-328; P29459 23-219)
# T1 construct: Bought His-tagged p35/p40 heterodimer
# T1 sequence (looked up) 1: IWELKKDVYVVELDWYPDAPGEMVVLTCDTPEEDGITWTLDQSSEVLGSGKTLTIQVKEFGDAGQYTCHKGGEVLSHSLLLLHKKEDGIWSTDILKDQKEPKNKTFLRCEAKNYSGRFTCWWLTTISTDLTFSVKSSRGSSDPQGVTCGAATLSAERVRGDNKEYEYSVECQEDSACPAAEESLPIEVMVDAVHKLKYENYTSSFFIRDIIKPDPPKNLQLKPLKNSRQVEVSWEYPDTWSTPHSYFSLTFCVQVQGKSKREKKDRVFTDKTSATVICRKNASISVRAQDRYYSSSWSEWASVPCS
# T1 sequence (looked up) 2: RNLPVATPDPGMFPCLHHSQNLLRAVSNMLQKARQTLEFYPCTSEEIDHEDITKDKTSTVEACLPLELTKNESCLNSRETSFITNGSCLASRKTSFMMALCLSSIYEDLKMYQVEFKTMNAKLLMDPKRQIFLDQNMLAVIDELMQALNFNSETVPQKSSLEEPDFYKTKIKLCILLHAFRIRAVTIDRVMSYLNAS
# experimental protocol: FACS competition, IL-12-His 20 nM on 293T-IL-12RB1&IL-23R cells
observation type: EC50 (µg/mL)
Reply numerically in µg/mL, unit not repeated.

Data point: H5L12 (antibody, human IgG1, kappa, V domains shown, IgG1/kappa) VH: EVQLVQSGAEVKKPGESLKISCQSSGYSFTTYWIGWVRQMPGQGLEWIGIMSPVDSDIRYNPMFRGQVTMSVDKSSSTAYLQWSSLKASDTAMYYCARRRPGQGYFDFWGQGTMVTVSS VL: EIVLTQSPATLSASPGERATISCRASQSVSSWLAWYQQKPGQAPRSLIYAASNRQSGIPARFSGSGSGTDFTLTISSLEPEDFAVYYCQQYNIYPYTFGQGTRLEIKR ; EC50 = 0.317
